system: 996289-038-R-J1-PDC spheroid viability; assay: Anticancer human tumor 996289-038-R-J1-PDC patient-derived colon adenocarcinoma cell line growth inhibition [PI3K]; details: second compound 3.16 µM; first compound 0.316 µM; stronger effect = lower value; spheroids with HUVEC and MSC
Output 1.0 for records whose viability, T/C is lower than 60%, 0.0 for records at or above 60%.

Q) Given CC1(C)CCC(CN2CCN(c3ccc(C(=O)NS(=O)(=O)c4ccc(NCC5CCOCC5)c([N+](=O)[O-])c4)c(Oc4cnc5[nH]ccc5c4)c3)CC2)=C(c2ccc(Cl)cc2)C1 + CC(Nc1ncnc2nc[nH]c12)c1cc2cccc(Cl)c2c(=O)n1-c1ccccc1 , is recorded viability, T/C strictly lower than 60%?
A) 0.0

Q) Record CCCS(=O)(=O)Nc1ccc(F)c(C(=O)c2c[nH]c3ncc(-c4ccc(Cl)cc4)cc23)c1F + Cc1nc(NC(=O)N2CCCC2C(N)=O)sc1-c1ccnc(C(C)(C)C(F)(F)F)c1 : is its viability, T/C strictly below 60%?
A) 1.0

Q) Dear colleague, could you confirm whether viability, T/C of Cn1ncc(Cl)c1-c1cc(C(=O)NC(CN)Cc2cccc(F)c2)sc1Cl (stereo not given) + CC(Nc1ncnc2nc[nH]c12)c1cc2cccc(Cl)c2c(=O)n1-c1ccccc1 falls below 60%? Thanks.
A) 0.0

###

test system: 996289-038-R-J1-PDC spheroid viability; experiment: Anticancer human tumor 996289-038-R-J1-PDC cell line growth inhibition [PI3K]; conditions: second compound 0.00316 µM; first compound 0.316 µM; stronger effect = lower value; spheroids with HUVEC and MSC;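 also: spheroids exposed to compounds for seven days before viability read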;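 as to viability, T/C: luminescence used as a proxy for viable cell amount; percent viability relative to DMSO vehicle control as 100%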
Assignment: determine reported viability, T/C for the given molecules.
Answer in %, number only, no unit symbol.

Q) State its viability, T/C on 996289-038-R-J1-PDC spheroid viability: CC(C)NCC(C(=O)N1CCN(c2ncnc3c2C(C)CC3O)CC1)c1ccc(Cl)cc1 (stereo unspecified) + COc1c(OCCCN2CCOCC2)ccc2c3n(c(=NC(=O)c4cnc(N)nc4)nc12)CCN3
A) 103

Q) Under 996289-038-R-J1-PDC spheroid viability: viability, T/C value of Cn1nccc1Nc1nccc(-c2ccn(C(CO)c3ccc(Cl)c(F)c3)c(=O)c2)n1 (stereo unspecified) + COc1c(OCCCN2CCOCC2)ccc2c3n(c(=NC(=O)c4cnc(N)nc4)nc12)CCN3 ?
A) 104

Q) Form field - read-out: viability, T/C; system: 996289-038-R-J1-PDC spheroid viability; submitted item: CC(Cn1ccc(-c2ccc(C#N)c(Cl)c2)n1)NC(=O)c1cc(C(C)O)[nH]n1 (stereo unspecified) + COc1c(OCCCN2CCOCC2)ccc2c3n(c(=NC(=O)c4cnc(N)nc4)nc12)CCN3
A) 98

Q) Given the entry C[C@@H](NC(=O)c1ncnc(N)c1Cl)c1ncc(C(=O)Nc2cc(C(F)(F)F)c(Cl)cn2)s1 + CC(Nc1ccc2c(c1)OCCn1cc(N3C(=O)OCC3C(F)F)nc1-2)C(N)=O , what viability, T/C was observed with 996289-038-R-J1-PDC spheroid viability?
A) 129

Q) Find the measured viability, T/C: item Cn1ncc(Cl)c1-c1cc(C(=O)NC(CN)Cc2cccc(F)c2)sc1Cl (stereo unspecified) + CC(Nc1ccc2c(c1)OCCn1cc(N3C(=O)OCC3C(F)F)nc1-2)C(N)=O , target or system 996289-038-R-J1-PDC spheroid viability.
A) 84.3

Q) // map CC(Cn1ccc(-c2ccc(C#N)c(Cl)c2)n1)NC(=O)c1cc(C(C)O)[nH]n1 (stereo unspecified) + CC(Nc1ccc2c(c1)OCCn1cc(N3C(=O)OCC3C(F)F)nc1-2)C(N)=O to recorded viability, T/C (system: 996289-038-R-J1-PDC spheroid viability)
A) 98.5

###

system: 996289-038-R-J1-PDC spheroid viability; assay: Anticancer human tumor 996289-038-R-J1-PDC cell line growth inhibition [PI3K]; settings: second compound 0.316 µM; first compound 0.03 µM; stronger effect = lower value; spheroids with HUVEC and MSC;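 also: spheroids exposed to compounds for seven days before viability read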;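 as to viability, T/C: luminescence used as a proxy for viable cell amount; percent viability relative to DMSO vehicle control as 100%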
PARAMETER: viability, T/C (%)
Numeric answer only, unit % assumed.

Q) Consider the compound Cn1cnc2c(F)c(Nc3ccc(Br)cc3Cl)c(C(=O)NOCCO)cc21 + COc1c(OCCCN2CCOCC2)ccc2c3n(c(=NC(=O)c4cnc(N)nc4)nc12)CCN3 and give its measured viability, T/C.
A) 24.5

Q) Please look up its viability, T/C: Cn1cnc2c(F)c(Nc3ccc(Br)cc3Cl)c(C(=O)NOCCO)cc21 + Cc1nc(NC(=O)N2CCCC2C(N)=O)sc1-c1ccnc(C(C)(C)C(F)(F)F)c1
A) 60.6

Q) Entry Cn1cnc2c(F)c(Nc3ccc(Br)cc3Cl)c(C(=O)NOCCO)cc21 + CC(Nc1ccc2c(c1)OCCn1cc(N3C(=O)OCC3C(F)F)nc1-2)C(N)=O has what viability, T/C?
A) 53.4

Q) So what does the record say about viability, T/C for Cn1cnc2c(F)c(Nc3ccc(Br)cc3Cl)c(C(=O)NOCCO)cc21 + CC(Nc1ncnc2nc[nH]c12)c1cc2cccc(Cl)c2c(=O)n1-c1ccccc1 ?
A) 79.7

###

system: 996289-038-R-J1-PDC spheroid viability; assay: Anticancer human tumor 996289-038-R-J1-PDC cell line growth inhibition [PI3K]; conditions: second compound 0.00316 µM; first compound 3.16 µM; stronger effect = lower value; spheroids with HUVEC and MSC;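 also: spheroids exposed to compounds for seven days before viability read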;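 as to viability, T/C: luminescence used as a proxy for viable cell amount; percent viability relative to DMSO vehicle control as 100%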
Please respond with reported viability, T/C for every item in the list.
State the answer as a number, implicitly in %.

Q) Quick one: viability, T/C for CNC(=O)c1ccc(N2C(=S)N(c3ccc(C#N)c(C(F)(F)F)c3)C(=O)C2(C)C)cc1F + COc1c(OCCCN2CCOCC2)ccc2c3n(c(=NC(=O)c4cnc(N)nc4)nc12)CCN3 ?
A) 99.4

Q) # get_value(readout='viability, T/C', item= CC(Cn1ccc(-c2ccc(C#N)c(Cl)c2)n1)NC(=O)c1cc(C(C)O)[nH]n1 (stereo not given) + CC(Nc1ccc2c(c1)OCCn1cc(N3C(=O)OCC3C(F)F)nc1-2)C(N)=O )
A) 96

Q) Sample CC(C)NCC(C(=O)N1CCN(c2ncnc3c2C(C)CC3O)CC1)c1ccc(Cl)cc1 (stereo not given) + CC(Nc1ccc2c(c1)OCCn1cc(N3C(=O)OCC3C(F)F)nc1-2)C(N)=O — what was its viability, T/C?
A) 85.3

Q) Data request, read-out viability, T/C, for C[C@@H](NC(=O)c1ncnc(N)c1Cl)c1ncc(C(=O)Nc2cc(C(F)(F)F)c(Cl)cn2)s1 + COc1c(OCCCN2CCOCC2)ccc2c3n(c(=NC(=O)c4cnc(N)nc4)nc12)CCN3
A) 131

Q) What does the record list as viability, T/C for CC(C)NCC(C(=O)N1CCN(c2ncnc3c2C(C)CC3O)CC1)c1ccc(Cl)cc1 (stereo not given) + COc1c(OCCCN2CCOCC2)ccc2c3n(c(=NC(=O)c4cnc(N)nc4)nc12)CCN3 ?
A) 103

###

tested on: 996289-038-R-J1-PDC spheroid viability; assay: Anticancer human tumor 996289-038-R-J1-PDC cell line growth inhibition [PI3K]; conditions: curve of first compound; second compound 0.316 µM; spheroids with HUVEC and MSC;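 also: spheroids exposed to compounds for seven days before viability read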
Can you tell me IC50 for the items I'm about to list?

Q) Query: IC50; subject: C[C@@H](NC(=O)c1ncnc(N)c1Cl)c1ncc(C(=O)Nc2cc(C(F)(F)F)c(Cl)cn2)s1 + COc1c(OCCCN2CCOCC2)ccc2c3n(c(=NC(=O)c4cnc(N)nc4)nc12)CCN3
A) < 0.0316 µM

Q) Field request: IC50 | item: C=CC(=O)N1CCN(c2nc(=O)n(-c3c(C)ccnc3C(C)C)c3nc(-c4c(O)cccc4F)c(F)cc23)C(C)C1 (stereo unspecified) + CC(Nc1ncnc2nc[nH]c12)c1cc2cccc(Cl)c2c(=O)n1-c1ccccc1
A) > 10 µM

Q) Name the reported IC50 value associated with the compound CNC(=O)c1ccc(N2C(=S)N(c3ccc(C#N)c(C(F)(F)F)c3)C(=O)C2(C)C)cc1F + Cc1nc(NC(=O)N2CCCC2C(N)=O)sc1-c1ccnc(C(C)(C)C(F)(F)F)c1
A) > 10 µM

Q) Query (compound): Cn1nccc1Nc1nccc(-c2ccn(C(CO)c3ccc(Cl)c(F)c3)c(=O)c2)n1 (stereo unspecified) + CC(Nc1ccc2c(c1)OCCn1cc(N3C(=O)OCC3C(F)F)nc1-2)C(N)=O ; field requested: IC50
A) 4.82 µM

Q) Suppose we examine the compound CC(Cn1ccc(-c2ccc(C#N)c(Cl)c2)n1)NC(=O)c1cc(C(C)O)[nH]n1 (stereo unspecified) + COc1c(OCCCN2CCOCC2)ccc2c3n(c(=NC(=O)c4cnc(N)nc4)nc12)CCN3 ; what IC50 value has been reported?
A) < 0.0316 µM

Q) Recorded IC50 of CNC(=O)c1ccc(N2C(=S)N(c3ccc(C#N)c(C(F)(F)F)c3)C(=O)C2(C)C)cc1F + COc1c(OCCCN2CCOCC2)ccc2c3n(c(=NC(=O)c4cnc(N)nc4)nc12)CCN3 , please.
A) < 0.0316 µM

Q) Request the reported IC50 associated with Cn1ncc(Cl)c1-c1cc(C(=O)NC(CN)Cc2cccc(F)c2)sc1Cl (stereo unspecified) + Cc1nc(NC(=O)N2CCCC2C(N)=O)sc1-c1ccnc(C(C)(C)C(F)(F)F)c1
A) 2.74 µM

Q) Quick one: IC50 for CCCS(=O)(=O)Nc1ccc(F)c(C(=O)c2c[nH]c3ncc(-c4ccc(Cl)cc4)cc23)c1F + CC(Nc1ncnc2nc[nH]c12)c1cc2cccc(Cl)c2c(=O)n1-c1ccccc1 ?
A) 6.7 µM

Q) Given the entry Cn1cnc2c(F)c(Nc3ccc(Br)cc3Cl)c(C(=O)NOCCO)cc21 + Cc1nc(NC(=O)N2CCCC2C(N)=O)sc1-c1ccnc(C(C)(C)C(F)(F)F)c1 , report its measured IC50.
A) 0.0594 µM

Q) Which IC50 reading was recorded for the compound CC(=O)c1c(C)c2cnc(Nc3ccc(N4CCNCC4)cn3)nc2n(C2CCCC2)c1=O + Cc1nc(NC(=O)N2CCCC2C(N)=O)sc1-c1ccnc(C(C)(C)C(F)(F)F)c1 ?
A) > 0.1 µM

Q) Report IC50 for CCCS(=O)(=O)Nc1ccc(F)c(C(=O)c2c[nH]c3ncc(-c4ccc(Cl)cc4)cc23)c1F + Cc1nc(NC(=O)N2CCCC2C(N)=O)sc1-c1ccnc(C(C)(C)C(F)(F)F)c1 please.
A) 5.54 µM

Q) What IC50 value was documented for this compound, Cn1nccc1Nc1nccc(-c2ccn(C(CO)c3ccc(Cl)c(F)c3)c(=O)c2)n1 (stereo unspecified) + CC(Nc1ncnc2nc[nH]c12)c1cc2cccc(Cl)c2c(=O)n1-c1ccccc1 ?
A) > 10 µM

Q) Query: IC50; subject: CC(Cn1ccc(-c2ccc(C#N)c(Cl)c2)n1)NC(=O)c1cc(C(C)O)[nH]n1 (stereo unspecified) + CC(Nc1ccc2c(c1)OCCn1cc(N3C(=O)OCC3C(F)F)nc1-2)C(N)=O
A) > 10 µM

Q) Which IC50 is reported for this compound? CC(=O)c1c(C)c2cnc(Nc3ccc(N4CCNCC4)cn3)nc2n(C2CCCC2)c1=O + CC(Nc1ccc2c(c1)OCCn1cc(N3C(=O)OCC3C(F)F)nc1-2)C(N)=O
A) > 0.1 µM

Q) Suppose we examine the compound CCCS(=O)(=O)Nc1ccc(F)c(C(=O)c2c[nH]c3ncc(-c4ccc(Cl)cc4)cc23)c1F + COc1c(OCCCN2CCOCC2)ccc2c3n(c(=NC(=O)c4cnc(N)nc4)nc12)CCN3 ; what IC50 value has been reported?
A) < 0.0316 µM

Q) Which IC50 is listed for CC1(C)CCC(Nc2ncc(C(F)(F)F)c(-c3c[nH]c4c(P(C)(C)=O)c(C#N)ccc34)n2)CN1 (stereo unspecified) + Cc1nc(NC(=O)N2CCCC2C(N)=O)sc1-c1ccnc(C(C)(C)C(F)(F)F)c1 ?
A) 5.83 µM

Q) Find the recorded IC50 belonging to CC1(C)CCC(Nc2ncc(C(F)(F)F)c(-c3c[nH]c4c(P(C)(C)=O)c(C#N)ccc34)n2)CN1 (stereo unspecified) + CC(Nc1ncnc2nc[nH]c12)c1cc2cccc(Cl)c2c(=O)n1-c1ccccc1 and report it.
A) 5.94 µM

Q) Fill blank: measured IC50 of the compound CC(C)NCC(C(=O)N1CCN(c2ncnc3c2C(C)CC3O)CC1)c1ccc(Cl)cc1 (stereo unspecified) + CC(Nc1ccc2c(c1)OCCn1cc(N3C(=O)OCC3C(F)F)nc1-2)C(N)=O is ____.
A) > 10 µM

Q) // returns reported IC50 for input CC(C)NCC(C(=O)N1CCN(c2ncnc3c2C(C)CC3O)CC1)c1ccc(Cl)cc1 (stereo unspecified) + COc1c(OCCCN2CCOCC2)ccc2c3n(c(=NC(=O)c4cnc(N)nc4)nc12)CCN3
A) < 0.0316 µM

Q) For C=CC(=O)N1CCN(c2nc(=O)n(-c3c(C)ccnc3C(C)C)c3nc(-c4c(O)cccc4F)c(F)cc23)C(C)C1 (stereo unspecified) + COc1c(OCCCN2CCOCC2)ccc2c3n(c(=NC(=O)c4cnc(N)nc4)nc12)CCN3 , what is its reported IC50?
A) < 0.0316 µM

Q) Reported IC50 for CC1(C)CCC(CN2CCN(c3ccc(C(=O)NS(=O)(=O)c4ccc(NCC5CCOCC5)c([N+](=O)[O-])c4)c(Oc4cnc5[nH]ccc5c4)c3)CC2)=C(c2ccc(Cl)cc2)C1 + COc1c(OCCCN2CCOCC2)ccc2c3n(c(=NC(=O)c4cnc(N)nc4)nc12)CCN3 : what is it?
A) < 0.0316 µM

Entry source: PubChem BioAssay AID1963965
